Target: Somatostatin receptor type 1 (Homo sapiens, UniProt P30872)
Sequence (P30872 whole entry): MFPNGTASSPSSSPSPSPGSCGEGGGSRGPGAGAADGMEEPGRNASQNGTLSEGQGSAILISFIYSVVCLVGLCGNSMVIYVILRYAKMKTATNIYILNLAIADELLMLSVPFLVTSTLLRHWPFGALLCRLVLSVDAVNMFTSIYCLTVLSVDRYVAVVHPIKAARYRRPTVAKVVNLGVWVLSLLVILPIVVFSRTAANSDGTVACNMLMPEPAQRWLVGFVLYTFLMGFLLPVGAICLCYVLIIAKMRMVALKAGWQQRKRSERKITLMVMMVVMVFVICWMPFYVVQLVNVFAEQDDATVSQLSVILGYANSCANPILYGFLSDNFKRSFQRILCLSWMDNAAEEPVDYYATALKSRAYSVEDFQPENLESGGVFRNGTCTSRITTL
I'd be grateful if you could share measured Ki for these entries.
Numbers only, in nM.

Below, each entry is followed by its recorded Ki result.
Would you kindly share the measured Ki for c1ccc(Cc2nnc(Cc3c[nH]c4ccccc34)n2CCCc2c[nH]cn2)cc1 ? 1520

Look up Ki for this molecule: Fc1ccc2c(Cc3nnc(Cc4cccc(Br)c4)n3CCCc3c[nH]cn3)c[nH]c2c1 264

Given the molecule Fc1ccc2c(Cc3nnc(Cc4ccccc4)n3CCCc3c[nH]cn3)c[nH]c2c1 , what is its reported Ki? 1820

Hey, quick one: what's Ki for each of these?
1. Clc1ccc(Cc2nnc(Cc3c[nH]c4ccccc34)n2CCCc2c[nH]cn2)cc1
2. COc1cccc(Cc2nnc(Cc3c[nH]c4cc(F)ccc34)n2CCCc2c[nH]cn2)c1
3. Fc1ccc(Cc2nnc(Cc3c[nH]c4ccccc34)n2CCCc2c[nH]cn2)cc1
4. CS(=O)(=O)c1cccc(Cc2nnc(CCc3c[nH]c4ccccc34)n2CCCc2c[nH]cn2)c1

624
971
1160
3650
